target: native mouse MET on living cells (mouse, UniProt P16056 25-1379); assay: cell-based or functional assay
observation.type: protection from staurosporine-induced apoptosis EC50, MLP29 cells

Consider the reported protection from staurosporine-induced apoptosis EC50, MLP29 cells for these binders:
binder	measured
76H10 chimeric llama-human IgG1 mAb (antibody, V domains shown, human IgG1 CH1-CH2-CH3 and human CL lambda) VH: QLQLVESGGGLVQPGGSLRVSCTASGFTFNTYYMTWVRQAPGKGLEWVSDINSGGGTYYADSVKGRFTISRDNAKNTLYLQMNSLKPEDTALYYCVRVRIWPVGYDYWGQGTQVTVSS VL: QAVVTQEPSLSVSPGGTVTLTCGLSSGSVTTSNYPGWFQQTPGQAPRTLIYNTNNRHSGVPSRFSGSISGNKAALTITGAQPEDEADYYCSLYTGSYTTVFGGGTHLTVL	> 32 nM
72F8 chimeric llama-human IgG1 mAb (antibody, V domains shown, human IgG1 CH1-CH2-CH3 and human CL lambda) VH: ELQLVESGGGLVQPGGSLRLSCAASGFTFSNYVMSWVRQAPGKGLEWVSDTNSGGSTSYADSVKGRFTISRDNAKNTLYLQMNSLKPEDTALYYCARSFFYGMNYWGKGTQVTVSS VL: QSALTQPPSLSASPGSSVRLTCTLSSGNNIGSYDISWYQQKAGSPPRYLLNYYTDSRKHQDSGVPSRFSGSKDASANAGLLLISGLQPEDEADYYCSAYKSGSYRWVFGGGTHVTVL	> 32 nM

We now examine a further binder.
Please fill in: protection from staurosporine-induced apoptosis EC50, MLP29 cells reported for 71G12 chimeric llama-human IgG1 mAb (antibody, V domains shown, human IgG1 CH1-CH2-CH3 and human CL kappa) VH: QVQLQESGGDLVQPGGSLRVSCVVSGFTFSRYYMSWVRQAPGKGLEWVSSIDSYGYSTYYTDSVKGRFTISRDNAKNTLYLQMNSLKPEDTALYYCARAKTTWSYDYWGQGTQVTVSS VL: EIVLTQSPSSVTASVGGKVTINCKSSQSVFIASNQKTYLNWYQQRPGQSPRLVISYASTRESGIPDRFSGSGSTTDFTLTISSVQPEDAAVYYCQQAYSHPTFGQGTKVELK = > 32 nM
